assay: soluble on expression in E. coli; label from the status in PepcDB or PDB records
MEASURED PARAMETER: soluble on expression in E. coli

Some solved cases for reference:
MAEVVNISKSASFSKQEKEFSDFQKSKESNEKILNKESNRFTLHPIMYPEVWNFYKKAEASFWTAEEIDLSSDLKDFEKLNVNEKHFIKHVLAFFAASDGIVLENLASKFLREVEIIEAKKFYSFQIAVENIHSETYSLLIDNYIKDEKERLNLFHAIENIPAIKNKALWAAKWINDTNSFAERIVANACVEGILFSGSFCAIFWFKKQNKLHGLTFSNELISRDEGLHTDFNCLIYSLLENKLPENVVQNIVKEAVEVERSFICESLPCDLIGMNSRLMSQYIEFVADRLLECLGCSKVFHSKNPFNWMDLISLQGKTNFFEKRVADYQKSGVMAQRKEQVFSLNTDF
soluble
MIKDPRPLNDKAFIQQCIRQLCEFLTENGYAHNVSMKSLQAPSVKDFLKIFTFLYGFLCPSYELPDTKFEEEVPRIFKDLGYPFALSKSSMYTVGAPHTWPHIVAALVWLIDCIKIHTAMKESSPLFDDGQPWGEETEDGIMHNKLFLDYTIKCYESFMSGADSFDEMNAELQSKLKDLFNVDAFKLESLEAKNRALNEQIARLEQERSTANKANAERLKRLQKSADLYKDRLGLEIRKIYGEKLQFIFTNIDPKNPESPFMFSLHLNEARDYEVSDSAPHLEGLAEFQENVRKTNNFSAFLANVRKAFTATVYQ
soluble
MSDPYMPLTSVRSGAGFEAAKGVHGLTVQIANVYFIQLPSEPHSFVLIDAGMPQSAGVIVNEAKQRFGEGFQLKAIILTHGHFDHIGAIEEILEHWDVPVYIHSREMPYVTGKEDYPPARPDSKSGLVAKLSPLFPRHSIDISSHVQALPEDGSVPFLDEWMWIATPGHTPGHISLFRDDGRVLVAGDAVITVEQEKMADVLIQKQELHGPPAYFTPDTETAAESILKLAGLEPEALLTGHGIPMTGKNFRSDLTELANRLSSILEHHHHHH
soluble
ELDWFARRGLKEPNLAELLDLVALGSVADVVPLDANNRILVHQGLARIRAGRARPGLRALLEVAGRPPVRITSTDLGFILGPRLNAAGRLDDMSLGIECLLCDDEALARDMAVQLDQLNQDRKAIEQGMQREALAQLKELSLEQLPFGLCLFDADWHQGVIGILASRLKERYHRPTIAFADAGDGSLKGSARSIPGFHIRDALDAVAARHPGLISKFGGHAMAAGLSLPQENFGAFSAAFDAEVRRQLAEEDLAGRLLSDGQLSIQEFHLELARALRQAGPWGQHFPEPMFHGVFQLVQQRIVGERHLKLVLKSECGSLQLDGIAFNIDREQWPNPTVRWAELAYKLDVNEFRGQESVQL
not soluble

Ask: Param item = MGSDKIHHHHHHMETREAIFGRRSIRKYLDKPIEPEVLQDILEGAVMAPSAVNNQPWYFLAIKSQEQMEKLRGIFQEVSVKTKAVLEKRFPNNPEVVSETLGFLTSLGNARVCVLVFLLKPSKDYDIIAVESTSAAIQNLCLVAYDKGIGSCWMTAPLSTGFGDVLEKTFAPGKGKFIAAVTLGYPAVSPQAPKRKAGRYEII ; retrieve measured soluble on expression in E. coli.
Reply: not soluble

====

experiment: soluble on expression in E. coli; label from the status in PepcDB or PDB records
MEASURED PARAMETER: soluble on expression in E. coli

MGHHHHHHSHMANPKLLGLELSEAEAIGADSARFEELLLQASKELQQAQTTRPESTQIQPQPGFCIKTNSSEGKVFINICHSPSIPPPADVTEEELLQMLEEDQAGFRIPMSLGEPHAELDAKGQGCTAYDVAVNSDFYRRMQNSDFLRELVITIAREGLEDKYNLQLNPEWRMMKNRPFMGSISQQNIRSEQRPRIQELGDLYTPAPGRAESGPEKPHLNLWLEAPDLLLAEIDLPKLDGALGLSLEIGENRLVMGGPQQLYHLDAYIPLQINSHESKAAFHRKRKQLMVAMPLLLVPS
not soluble
GPGSMNNRHSGSEKTPATQKKDSLAPSATNADITKVKICSGHTRPICHINYSNIIDGTFWLVTSCHDAKPMLRNGETGDWVGTFEGHKGAVYCSVFNEDATRLVTGSGDYSSMVWNAVTGDKLHTWSHPKYIKSCDWCGNKIATGCVDGLVRIFDAQAYDANPVCFDSTEKVNQVKATYFIDHTTMVTACENTIMKWDLRDTSLPYLRKEIPGLNFLEYTHSNSIVAAHEKSISFIDTTSLEIKSSFTTSDDIECASLSPNGQNVAAGSKLKAKEFTVDGTELESHRGHHGPIFHIRWAPDGKSFTSGAEDGMARIWPSHDIIETYDNEN
not soluble
MAHHHHHHMKDEQISCYYLTEKGKNKCFKNIKLITFDLDHTIWNIDALLNYADNECYKYMEQNYKRLYDYLSKEYALSMTNLVKELLERNIDMNKDGVQILTRIRTDALKYLAKQTNYDEIKFASEIQKLWKEKKKDVHLFISPGTLEYLRELKNRGYILGAITNGDSDVNEIKFLNEIFSFVVRSMDYNFAKPNVEIFNIAENLLKEKNINFHVDEWLHVGDDVYTDIMGAKNKNINCAWITMFREGREISHKEWYSYLKLKYEQNDNKQTLSQYDPYADGLFAKFRKKDVVLPFDYIDIEIRHCRDLDSILA
not soluble

====

assay: soluble on expression in E. coli; label from the status in PepcDB or PDB records
MEASURED PARAMETER: soluble on expression in E. coli

MSFSESRHNENCLIQEGALLFCEQAVVAPVSGDLVFRPLKIEVLSKLLAFIDGAGLVDTTYAESDKWVLLSPEFRAIWQDRKRCEYWFLQQIITPSPAFNKVLALLRKSESYWLVGYLLAQSTSGNTMRMLGEDYGVSYTHFRRLCSRALGGKAKSELRNWRMAQSLLNSVEGHENITQLAVNHGYSSPSHFSSEIKELIGVSPRKLSNIIQLADK
not soluble
MSLIRKREFDMPIKIPDTLPAFETLVHEGVRVMTETAAIRQDIRPLQIGLLNLMPNKIKTEIQMARLVGASPLQVELSLIRIGGHRAKNTPEEHLLSFYQTWEEVRHRKFDGFIITGAPIELLDYEDVTYWNEMQQIFEWTQTNVHSTLNVCWGAMAAIYHFHGVPKYELKEKAFGVYRHRNLSPSSIYLNGFSDDFQVPVSRWTEVRRADIEKHPELEILMESDEMGVCLAHEKAGNRLYMFNHVEYDSTSLADEYFRDVNSGVPIKLPHDYFPHNDPELAPLNRWRSHAHLFFGNWINEIYQTTPYDPQAIGKLAAEGHHHHHH
soluble
MGSDKIHHHHHHMRLFSKLFNIRDNTVVERPRSLTGEGIAAKTQTRVAEKISSTPNDTDTVAAPTVDVAALFYSLLFATSHKDTGGIANNLEKRLIGNVESALADPKVIAEKVFKLPHDLIELDKQLANPEVDTEEVIALIKRDPVLSAEVIQLCNAPAFHRGAKDITSLQQAVVILGREQLRRFVSAVKVREVVEIKPIYYRRFGAEVWRHSLQVAYLAAELATEDQDTAFMLGLIHDVGKIAIFQMLLEAFAKAEPGEQPRSWLFRQVMTSKSLILSAVLARSWLLPPLFSRSLAALANPDNMPTEPLPKAIWTANHISECSMLWQAARLKEPQLNELLARIGMDRKTFDPLHEKLILFTR
not soluble
PSLALYVDASGKIKYINEYFLEICRFKSADEATGRSPSELLDTSSRRTLAEKVMETGEGIYNVEKSIKFKALDKPLFTVLSAVPVKDETGTIAGSLMVITDMT
not soluble
APLFIKNVNGIKVAILSYAYGFNGLESNLTEKEIANHLSNLDEKRMKVEIERAEKEADVTVIMPQMGVEYRLEPTDEQVKLYHKMIDWGADIIFGGHPHVVEPSEVVKKDGQQKLIIYSMGNFISNQRIETVDGVDNAAWTERSVLMDVTLEKKNCQTTIKTAQAHPTWVNRTPKGTISPEGYPLYTYQTYILEDFIKGRKYRNKLDEETKERIDTAYKEMNAHVNL
not soluble

Ask: Param item = MSDVTVVNCPTCGKPVVWGEISPFRPFCSKRCQLIDLGEWAAEEKRIASSGDQSDSDDWSEER ; retrieve measured soluble on expression in E. coli.
Reply: not soluble

Ask: What do you get for MPRYYEDKPEGGACAGVKEDLGACLLQSACVLQEGKSPRQCLKEGNCRALQYSFFECKRSMLDARSRFRGRKGY ?
Reply: not soluble

Ask: What do you get for MSLKIVLTGSIGRINQTLVPKLTHAGHEVTVISHQATRSSLIKVFRATPAIGRLDDEAFLTKTFMGADVVYLMVTGIAASDDLYTAAKRQADIYAAAIKAAGVKRVVNLSSVGADLGPEVGALYMYHIIEQTLTTALPDVDLTFIRPTAMYYNLLSSVPTVKKSHRIYTNANLAVKNVWVAPVDVTTVLIKALTEPTPGQTVTYVASDEKTYLEVASALSQALKMPDLRVSQVPDEVMQDHLVTAGTPVAFAREYVKTVAYQRDHDFYADYRAHQPRLGDVKLADFAEGHHHHHH ?
Reply: not soluble

Ask: What do you get for MGSDKIHHHHHHMNDYDNNSNINEDAWNKETYSAWVKRFGTPDTAAKKISKDPSKILSVLHEKLGDVKGKKIMNIMGSNGSKAVALALLGADVTVVDFSKGNMDYALDLAKEADVKIDYILSDILKLPEDKLTADYDIVFAEMGIIHYFIDLKPFIKTINRLLKEGGLFVLRDFHPVSTKLITSRGSTAKVRKHKVTGDYFDTSLEEKDAAFSKYLIDNKEPEKVLLRKWTLGEIVTSVAEGGFKIKKLDEEPNLSCDNFDKGIPKSFTLTSEKLS ?
Reply: not soluble

Ask: What do you get for MSLSSKEYFSDTDSFENTPCPLCGSESSSLLYEINSYKYNKCNNCELVYLNPRLKEESLLEYYAQDSFYAEYSSGTGYEIQERALRSTFSRYMKELHKRNVTGGKLLEIGCGFGFLLDEAKNYFDYRIGTDFSSEAVSHAKKYADNVYCGGLEAIPSDTSTKFDCVITFSVLEHVYNPNTFIQEIQNYMAPNGSLVVSTPFIGGMWYKILGKKWSFFIPPEHVCLYNHNSISQLLKQNGFKNIEMFISSHAWPVAGFLSKMGMRKLSSMTLKLKIGDVPLFVPFTIINIIGSKEGHHHHHH ?
Reply: soluble

Ask: What do you get for MGSDKIHHHHHHMKLVEITREEIRGDLVGLVPVGSIEQHGPHLPMGTDGIISEYIASKAEEKLKDITLLFPTIYYGVSLEHKGFPFVSLSFQTAISFFTDLLESVFNDLGLRRIIIVNGHGGNSYFLPLVQREFNMKHSDAKVIVFNTFGEEEKILFNVNDLHAGTIETSKIWAIGKSLVRVNKIDEIKNYEVRDGVFIYYSSREANQFGVLNDGKPIRVNEEYGKKILRDLVDKLIWTILNFKV ?
Reply: not soluble

Ask: What do you get for MGSDKIHHHHHHMKVTIIGAAGQIPHFLIPMLQKQTDAELTLFARNATSRLLDYSKPTVRIVDGDASKSGDVKTAITDADVVFMDFDNPEAVKNVIKVMDQLGKKRLIVAGVLGVYDEVAGAFGKWNNMMIGSGYLPHKQAVTELEKSDLDYTYMRMTWLYDQDGNTNYETQKKGQPLIGAQVTRQAVSQYVIDMIKNPELGIRESNGVVEPNTNFAKPSFY ?
Reply: not soluble

From: the DeepSol protein solubility set
